test system: Pseudomonas aeruginosa U 31; experiment: Antibacterial test (MIC), Pseudomonas aeruginosa U 31; type: cell-based; conditions: medium TSA
Measurement kind: Minimum inhibitory concentration (MIC)

Known value: Pseudomonas aeruginosa U 31 Minimum inhibitory concentration (MIC) of the molecule CCN1CCN(C(=O)N[C@@H](C(=O)NC2CN(S(=O)(=O)[O-])C2=O)c2cccs2)C(=O)C1=O.[Na+] (stereo partly shown) equals > 100 µg/mL

Known value: Pseudomonas aeruginosa U 31 Minimum inhibitory concentration (MIC) of the molecule CCCCCCCCN1CCN(C(=O)NC(C(=O)NC2CN(S(=O)(=O)[O-])C2=O)c2cccs2)C(=O)C1=O.[Na+] (stereo not shown) equals 25 µg/mL

Known value: Pseudomonas aeruginosa U 31 Minimum inhibitory concentration (MIC) of the molecule O=C(NC1CN(S(=O)(=O)[O-])C1=O)C(NC(=O)N1CCN(N=Cc2ccco2)C1=O)c1cccs1.[Na+] (stereo not shown) equals > 100 µg/mL

Known value: Pseudomonas aeruginosa U 31 Minimum inhibitory concentration (MIC) of the molecule CCN1CCN(C(=O)NC(C(=O)NC2CN(S(=O)(=O)[O-])C2=O)c2cccs2)C(=O)C1=O.[Na+] (racemic) equals > 100 µg/mL

* * *

system: Escherichia coli 0-111
Task for the reader: assign each of the following compounds its reported MIC.
Kindly answer with a numeric value in µg/mL, unit omitted.

Known value: Escherichia coli 0-111 MIC of the compound O=C(NC1CN(S(=O)(=O)O)C1=O)[C@H](NC(=O)N1CCN(N=Cc2ccco2)C1=O)c1ccccc1 (some centres unmarked) equals 3.13

Known value: Escherichia coli 0-111 MIC of the compound CCN1CCN(C(=O)N[C@@H](C(=O)NC2CN(S(=O)(=O)O)C2=O)c2ccccc2)C(=O)C1=O (single isomer, unassigned) equals 0.2

Known value: Escherichia coli 0-111 MIC of the compound CON=C(C(=O)NC1CN(S(=O)(=O)[O-])C1=O)c1csc(N)n1.[Na+] (centres unmarked) equals 0.39

Known value: Escherichia coli 0-111 MIC of the compound CCN1CCN(C(=O)NC(C(=O)NC2CN(S(=O)(=O)O)C2=O)c2csc(N)n2)C(=O)C1=O (centres unmarked) equals 0.1

Known value: Escherichia coli 0-111 MIC of the compound CCCCCCCCN1CCN(C(=O)NC(C(=O)NC2CN(S(=O)(=O)O)C2=O)c2csc(N)n2)C(=O)C1=O (centres unmarked) equals 3.13

Known value: Escherichia coli 0-111 MIC of the compound CCCCCCCCN1CCN(C(=O)N[C@@H](C(=O)NC2CN(S(=O)(=O)O)C2=O)c2ccccc2)C(=O)C1=O (some centres unmarked) equals 0.78

Known value: Escherichia coli 0-111 MIC of the compound O=C(NC1CN(S(=O)(=O)O)C1=O)[C@H](NC(=O)N1CCN(N=Cc2cccs2)C1=O)c1ccccc1 (some centres unmarked) equals 0.39

Known value: Escherichia coli 0-111 MIC of the compound CCN1CCN(C(=O)N[C@@H](C(=O)NC2(OC)CN(S(=O)(=O)O)C2=O)c2ccccc2)C(=O)C1=O (single isomer, unassigned) equals 12.5

* * *

tested on: Streptococcus pneumoniae Type I; experiment: Antibacterial test (MIC), Streptococcus pneumoniae Type I; assay type: cell-based; conditions: medium B-TSA
Task for the reader: assign each of the following compounds its reported Minimum inhibitory concentration (MIC).
Kindly answer with a numeric value in µg/mL, unit omitted.

CCN1CCN(C(=O)NC(C(=O)NC2CN(S(=O)(=O)[O-])C2=O)c2cccs2)C(=O)C1=O.[Na+] (racemic) has a reported Minimum inhibitory concentration (MIC) of 3.13

CCN1CCN(C(=O)N[C@@H](C(=O)NC2CN(S(=O)(=O)[O-])C2=O)c2cccs2)C(=O)C1=O.[Na+] (stereo partly shown) has a reported Minimum inhibitory concentration (MIC) of 6.25

O=C(NC1CN(S(=O)(=O)[O-])C1=O)C(NC(=O)N1CCN(N=Cc2ccco2)C1=O)c1cccs1.[Na+] (stereo not shown) has a reported Minimum inhibitory concentration (MIC) of 1.56

CCCCCCCCN1CCN(C(=O)NC(C(=O)NC2CN(S(=O)(=O)[O-])C2=O)c2cccs2)C(=O)C1=O.[Na+] (stereo not shown) has a reported Minimum inhibitory concentration (MIC) of 1.56

* * *

Counter-ions that a name gives are not always drawn.
Measurement kind: MIC
Field note: include the unit after the figure.

Known value: Klebsiella pneumoniae TN 1711 MIC of the compound CC(C)(O/N=C(\C(=O)N[C@H]1C(=O)N(S(=O)(=O)O)[C@H]1C(N)=O)c1csc(N)n1)C(=O)O (relative stereo) [Example No. 133C] equals 0.39 µg/mL

Known value: Klebsiella pneumoniae TN 1711 MIC of the compound CC(=O)NC[C@H]1[C@@H](NC(=O)/C(=N\OC(C)(C)C(=O)O)c2csc(N)n2)C(=O)N1S(=O)(=O)O (relative stereo) [Example No. 147C] equals 0.39 µg/mL

Known value: Klebsiella pneumoniae TN 1711 MIC of the compound CC(=O)OC[C@H]1[C@@H](NC(=O)/C(=N\OC(C)(C)C(=O)O)c2csc(N)n2)C(=O)N1S(=O)(=O)O (relative stereo) [Example No. 136C] equals 1.56 µg/mL

Known value: Klebsiella pneumoniae TN 1711 MIC of the compound COC(=O)[C@H]1[C@@H](NC(=O)/C(=N\OC(C)(C)C(=O)O)c2csc(N)n2)C(=O)N1S(=O)(=O)O (relative stereo) [Example No. 68C, disodium salt] equals 0.78 µg/mL

Known value: Klebsiella pneumoniae TN 1711 MIC of the compound COC(=O)[C@H]1[C@@H](NC(=O)/C(=N\OCC(=O)O)c2csc(N)n2)C(=O)N1S(=O)(=O)O (relative stereo) [Example No. 65C, disodium salt] equals 0.2 µg/mL

Known value: Klebsiella pneumoniae TN 1711 MIC of the compound CC(C)(O/N=C(\C(=O)N[C@H]1C(=O)N(S(=O)(=O)O)[C@@H]1C(N)=O)c1csc(N)n1)C(=O)O (relative stereo) [Example No. 144C] equals 3.13 µg/mL

Known value: Klebsiella pneumoniae TN 1711 MIC of the compound CO/N=C(\C(=O)N[C@H]1C(=O)N(S(=O)(=O)O)[C@H]1COC(N)=O)c1csc(N)n1 (relative stereo) [Example No. 138C] equals 6.25 µg/mL

Known value: Klebsiella pneumoniae TN 1711 MIC of the compound COC(=O)C[C@@H]1[C@@H](NC(=O)/C(=N\OC(C)(C)C(=O)O)c2csc(N)n2)C(=O)N1S(=O)(=O)O (relative stereo) [Example No. 158C] equals 6.25 µg/mL

* * *

Task for the reader: assign each of the following molecules its reported Minimum inhibitory concentration (MIC).
tested on: Serratia marcescens IFO 12648; assay: Antibacterial test (MIC), Serratia marcescens IFO 12648; assay type: cell-based; details: medium TSA
Kindly answer with a numeric value in µg/mL, unit omitted.

CCN1CCN(C(=O)N[C@@H](C(=O)NC2CN(S(=O)(=O)[O-])C2=O)c2cccs2)C(=O)C1=O.[Na+] (stereo partly shown) has a reported Minimum inhibitory concentration (MIC) of 1.56

O=C(NC1CN(S(=O)(=O)[O-])C1=O)C(NC(=O)N1CCN(N=Cc2ccco2)C1=O)c1cccs1.[Na+] (stereo not shown) has a reported Minimum inhibitory concentration (MIC) of 1.56

CCCCCCCCN1CCN(C(=O)NC(C(=O)NC2CN(S(=O)(=O)[O-])C2=O)c2cccs2)C(=O)C1=O.[Na+] (stereo not shown) has a reported Minimum inhibitory concentration (MIC) of 1.56

CCN1CCN(C(=O)NC(C(=O)NC2CN(S(=O)(=O)[O-])C2=O)c2cccs2)C(=O)C1=O.[Na+] (racemic) has a reported Minimum inhibitory concentration (MIC) of 3.13

* * *

tested on: Enterobacter cloacae IFO 12937; assay: MIC by agar dilution method (Experiment C), Enterobacter cloacae IFO 12937; assay type: cell-based; conditions: IFO12937, Trypticase Soy agar, about 10^8 CFU/ml, 37° C. overnight, read-out: Minimal inhibitory concentration (MIC)
Structures can show the parent of a compound that is named as a salt.
Task for the reader: assign each of the following compounds its reported MIC.

COC(=O)[C@H]1[C@@H](NC(=O)/C(=N\OCC(=O)O)c2csc(N)n2)C(=O)N1S(=O)(=O)O (relative stereo) [Example No. 65C, disodium salt] has a reported MIC of 6.25 µg/mL

COC(=O)C[C@@H]1[C@@H](NC(=O)/C(=N\OC(C)(C)C(=O)O)c2csc(N)n2)C(=O)N1S(=O)(=O)O (relative stereo) [Example No. 158C] has a reported MIC of 3.13 µg/mL

CC(C)(O/N=C(\C(=O)N[C@H]1C(=O)N(S(=O)(=O)O)[C@H]1C(N)=O)c1csc(N)n1)C(=O)O (relative stereo) [Example No. 133C] has a reported MIC of 1.56 µg/mL

* * *

target: β-lactamase produced by Enterobacter cloacae PN 1282 (Enterobacter cloacae, UniProt P05364); construct: cephalothin substrate, micro-iodometric; experiment: Inhibitor concentration required to inhibit the β-lactamase (cephalosporinase) activity by 50%, micro-iodometric method; format: biochemical; details: 0.05M phosphate buffer (pH 7), 30° C., 10 min preincubation, cephalothin 0.1 mM, read-out: I50 (inhibitor concentration required to inhibit the enzyme activity by 50%) (converted)
Sequence (P05364 21-381): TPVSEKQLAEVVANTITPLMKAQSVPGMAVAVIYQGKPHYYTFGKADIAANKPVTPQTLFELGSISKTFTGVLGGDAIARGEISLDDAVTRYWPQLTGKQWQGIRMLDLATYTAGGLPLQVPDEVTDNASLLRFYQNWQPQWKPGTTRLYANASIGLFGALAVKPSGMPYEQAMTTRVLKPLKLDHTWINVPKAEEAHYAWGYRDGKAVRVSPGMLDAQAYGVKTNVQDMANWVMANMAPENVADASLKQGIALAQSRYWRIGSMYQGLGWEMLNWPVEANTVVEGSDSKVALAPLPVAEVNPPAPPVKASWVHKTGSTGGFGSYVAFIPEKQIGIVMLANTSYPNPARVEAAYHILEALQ
Task for the reader: assign each of the following compounds its reported IC50.
Kindly answer with a numeric value in nM, unit omitted.

CON=C(C(=O)N[C@@H]1C(=O)N(S(=O)(=O)O)[C@H]1Sc1ccccc1)c1csc(N)n1 has a reported IC50 of 59

CS[C@@H]1[C@H](NC(=O)C(=NOC(C)(C)C(=O)O)c2csc(N)n2)C(=O)N1S(=O)(=O)O has a reported IC50 of 406

CON=C(C(=O)N[C@@H]1C(=O)N(S(=O)(=O)O)[C@@H]1SC)c1csc(N)n1 has a reported IC50 of 759

CS[C@@H]1[C@H](NC(=O)c2c(-c3c(Cl)cccc3Cl)noc2C)C(=O)N1S(=O)(=O)O has a reported IC50 of 96.5

This collection of values is drawn from patent US4822790A.
